Where do these numbers come from? They come from patent US20260078099A1.

Experiment: LNP zeta potential
Type: physicochemical
Conditions: mRNA LNP
Some molecules, each annotated with its measured Zeta potential (mV).

| MOLECULE | UNITS LABEL | Zeta potential (mV) |
| --- | --- | --- |
| CCCCCCCC(C(=O)NCCCCCCCCCC(=O)OC(CCCCCC)CCCCCC)N(CCCN(C)C)C(=O)CCCCCCCCCC(=O)OCC12CC3CC(CC(C3)C1)C2 (stereo not shown) [Compound A17] | mV | −0.68 |
| CCCCCCCCNC(=O)C(CCCCCCCC)N(CCCCN(C)C)C(=O)CCCCCCC(=O)OC(CCCCCCCC)CCCCCCCC (stereo not shown) [Compound A35] | mV | −7.81 |
| CCCCCCCCNC(=O)C(CCCCCC)N(CCCN(C)C)C(=O)CCCCCCC(=O)OC(CCCCCCCC)CCCCCCCC (stereo not shown) [Compound A29] | mV | −1.24 |
| CCCCCCCC(C(=O)NCCCCCCCCCC(=O)OC(CCCCCC)CCCCCC)N(CCCN1CCCC1)C(=O)CCCCCCCCCC(=O)OCC1CC=CCC1 (stereo not shown) [Compound A9] | mV | −18.67 |
| CCCCCCCCC(CCCCCCCC)OC(=O)CCCCCC(=O)N(CCCN(C)C)C(CCCCCCCC)C(=O)NCCCCCC(=O)OCCC12CC3CC(CC(C3)C1)C2 (stereo not shown) [Compound A48] | mV | 0.65 |
| CCCCCCCCC(CCCCCC)C(=O)OCCCCCCN(CCCCO)CCCCCCOC(=O)C(CCCCCC)CCCCCCCC (stereo not shown) [ALC-0315] | mV | −0.76 |
| CCCCCCCCNC(=O)C(CCCC)N(CCCN(C)C)C(=O)CCCCCCC(=O)OC(CCCCCCCC)CCCCCCCC (stereo not shown) [Compound A27] | mV | −3.43 |
